Test: NCI Yeast Anticancer Drug Screen. Data for the bub3 strain (AID 167)
Settings: S. cerevisiae bub3 mutant strain, at 5.0 µM (retest, dose inferred, filed as 0.5), stronger effect = higher value
This is part of a sample that, as a whole, favours compounds with a hit. Of some 79,000 tested, about 15% had one in any assay.

# Compound, growth inhibition, %
rows = [
    ("CC1=CC(=O)[C@@H](O)[C@]2(C)[C@H]3[C@@]4(O)OC[C@]35[C@H]([C@@H](C)[C@H]4O)[C@@H](OC(=O)C(C)(C)CO)C(=O)O[C@@H]5C[C@@H]12", 6),
    ("Cc1ccc2sc(=S)sc2c1", 7),
    ("O=C1OC(C2OC(=O)C(=O)C2C(=O)c2ccc(Cl)c(Cl)c2)C(C(=O)c2ccc(Cl)c(Cl)c2)C1=O (stereo not given)", -34),
    ("CN(C)CCNc1ccc([N+](=O)[O-])c2nc3ccccc3c(N)c12", -8),
    ("Cc1c(NC(=O)/C(=N/NC(=S)N=N)C2C(=O)CC(C)(C)CC2=O)c(O)c2ccccc2c1O", 16),
]
